From: PubChem BioAssay (NCI)

Overview of reported growth across a group of molecules:
# Tested on: MDA-MB-435 melanoma
# test: NCI-60 one-dose screen, 48 h (100 = growth as untreated, 0 = no growth, -100 = all killed)
# cond: 10 µM
# Method: Growth inhibition of the MDA-MB-435 human Melanoma tumor cell line is measured as a screen for anti-cancer activity. Cells are grown in 96 well plates and exposed to the test compound for 48 hours. Compounds are tested at a single concentration, which is 10^-5 M for most compounds. The reported endpoint is percent growth (GI% or GIPRCNT), where numbers from 0 - 100% represent growth inhibition, and numbers from -100% - 0 represent cell death. […]
About 83,000 compounds went through this panel and 20% of them were active in at least one assay; those are over-represented in the sample as a whole. Activity calls are given as the source filed them. The calls were made as follows: active = growth percent below 10; inactive = the rest.

Reference set (2 entries):
{"molecule": "COc1cc2cc(Oc3ccc(NC(=O)Nc4ccc(Cl)c(C(F)(F)F)c4)cc3)c(C)nc2cc1OC", "subject.of.test": "MDA-MB-435 melanoma", "reading": "-25.7% (active)"}
{"molecule": "COc1ccccc1/C=N\\N/C(N)=N\\N=C\\c1ccccc1OC", "subject.of.test": "MDA-MB-435 melanoma", "reading": "-39.2% (active)"}

Specify reported growth for the molecule shown: C[C@@H](C[C@H](CCO)c1ccccc1)c1ccc2ccccc2c1
-75.3% (active)

Specify reported growth for the molecule shown: CCc1ccc(C2=NN(c3ccc(S(C)(=O)=O)cc3)C(=O)CC2)cc1
-24.3% (active)

Specify reported growth for the molecule shown: COc1nc2c(c(=O)n1C)CN(c1ccccc1)C(=O)C(C)N2 (stereo unspecified)
103% (inactive)

Specify reported growth for the molecule shown: O=C(Nc1ccc(F)cc1)c1cc2ccccc2cc1O
86.3% (inactive)

Specify reported growth for the molecule shown: CCN(CC)CCOC(=O)c1cc(OCc2ccccc2)c(OCc2ccccc2)c(OCc2ccccc2)c1
74.7% (inactive)

Specify reported growth for the molecule shown: CCCCC1(O)CCCCC1
106% (inactive)

----------
# System: HCC-2998 colon
# test: NCI-60 one-dose screen, 48 h
# cond: 10 µM
Compounds without any hit were thinned out: in the full panel of roughly 83,000, 20% have a hit. Activity calls are given as the source filed them. How the source made its calls: active means growth percent below 10; inactive means the rest.
Pick one: active, inactive

{"smiles.text": "COc1cc(-c2nn(-c3cccc(NC(=O)NCCNS(=O)(=O)c4ccc(Cl)cc4)c3)cc2-c2ccncc2)ccc1Cl", "classification": "active"}

Please state the recorded outcome for this compound: CC(=O)N[C@H](C(=O)N[C@@H](CCCNC(=N)N)C(=O)N[C@@H](CCCCN)C(=O)N[C@@H](CCCNC(=N)N)C(=O)N[C@]1(C)CCCCCC/C=C\CCC[C@@](C)(C(=O)N[C@@H](CCCNC(=N)N)C(=O)N[C@@H](CCC(=O)O)C(=O)N[C@@H](CC(C)C)C(=O)N[C@H](C(=O)N[C@@H](CCC(=O)O)C(N)=O)C(C)C)NC(=O)[C@H](CCC(N)=O)NC(=O)[C@H](CC(C)C)NC(=O)[C@H](CC(C)C)NC(=O)[C@H](CCCNC(=N)N)NC(=O)[C@H](CCCNC(=N)N)NC(=O)[C@H](CC(C)C)NC1=O)C(C)C
inactive

Please state the recorded outcome for this compound: COc1cc(C(=O)n2nc(-c3cc(OC)c(OC)c(OC)c3)nc2N)cc(OC)c1OC
inactive

Please state the recorded outcome for this compound: O=C(CCn1cnc2c(cc(-c3ccccc3)n2-c2ccccc2)c1=O)Nc1ccc(F)cc1
inactive

Please state the recorded outcome for this compound: C[C@@H](O)[C@H]1C(=O)N2C(C(=O)O)=C(SCCN=CN)C[C@H]12
active

Please state the recorded outcome for this compound: CCOC(=O)Cn1c(=O)c2sc3ncccc3c2n2nnc(-c3ccccc3)c12
inactive
